Values were extracted from paper PMC5540273.

System: EPHA8
test-parameters: concentration: 1 μM,replicates: in singlicate; n = 1;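 note: KINOMEscan kinase panel screen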
quantity-name: %Inh (%)

CCn1c(-c2nonc2N)nc2cncc(CNC3CCNCC3)c21.Cl    0
CC(C)S(=O)(=O)N1CCN(Cc2ccc3c(c2)nc(NC(=O)c2ccsc2)n3C[C@H](O)c2ccccc2)CC1    19
Cn1ccc2ncnc(Oc3ccc(NC(=O)Nc4ccnc(C(F)(F)F)c4)c(Cl)c3)c21    14
Cc1nnc(-c2ccc3occ(-c4ccc(S(C)=O)cc4)c3n2)o1 (stereo not drawn)    0
C[C@@H]1CNc2c(sc3ccc4nc(-c5ccc(O)cc5)ccc4c23)C(=O)N1    0
Cl.Nc1n[nH]c2cc(-c3ccccn3)ccc12    0
CN(c1ccccc1CNc1nc(Nc2ccc3c(c2)CC(=O)N3)ncc1C(F)(F)F)S(C)(=O)=O    0
Cc1cccc2c(-c3ccncc3)c(-c3ccc(F)cc3)nn12.Cl    16
NC(=O)c1ccc(-c2cc3ncnc(SCC(=O)O)c3s2)cc1    0

###

Parameter: %Inh. Scope: all listed entries.
Tested on: TRPM6
test-parameters: concentration: 1 μM,replicates: in singlicate; n = 1
quantity-name: %Inh

Cn1ccc2ncnc(Oc3ccc(NC(=O)Nc4cncc(C(F)(F)F)c4)c(Cl)c3)c21    0%
COc1cccc(C2=C(Nc3cccc(Cl)c3)C(=O)NC2=O)c1    0%
CC(=O)c1c(-c2ccncc2)[nH]c(-c2ccncc2)c1C    33%
C[C@@H]1CNc2c(sc3ccc4nc(-c5ccncc5)ccc4c23)C(=O)N1    0%
Cc1ccc(CC(=O)N2CCc3cc(-c4cn(C)c5ncnc(N)c45)ccc32)cc1    5%

###

Parameter: %Inh. Scope: all listed entries.
Test system: MYO3B
test-parameters: concentration: 1 μM,replicates: in singlicate; n = 1
quantity-name: %Inh (%)

CCNCC(Cc1ccccc1)NC(=O)c1cc(Br)c(-c2ccnc3[nH]ccc23)s1.Cl.Cl (stereo not drawn)    0
CS(=O)c1ccc(-c2coc3ccc(-c4n[nH]c(=O)o4)cc23)cc1 (stereo not drawn)    0
COC(=O)c1cccc(NC(=O)NC2CCN(c3ccnc(NCc4ccc(F)cc4)n3)CC2)c1    0
O=C(Nc1ccccc1)c1cccc(Oc2ccc3nccn3n2)c1    0
NC(=O)c1ccc(-c2cc3ncnc(SCC(=O)O)c3s2)cc1    3
COc1cc2nccc(Nc3ccc(Oc4ccccc4)cc3)c2cc1OC.Cl    0
Cn1ccc2ncnc(Oc3ccc(NC(=O)Nc4cncc(C(F)(F)F)c4)c(Cl)c3)c21    0
COC(=O)c1cccc(NC(=O)NC2CCN(c3ccnc(Nc4cc(OC)c(OC)c(OC)c4)n3)C2)c1 (stereo not drawn)    0
Cl.c1ccc(Oc2ccc(Nc3ccnc4cc(-c5ccc(CN6CCNCC6)o5)ccc34)cc2)nc1    0
N#Cc1cccc(C(=O)NC2CCN(c3ccnc(Nc4ccc(F)cc4)n3)C2)c1 (stereo not drawn)    0
C[C@@H]1CCN(C(=O)N2CCCC2)C[C@@H]1N(C)c1ncnc2[nH]ccc12    0
CCn1c(-c2nonc2N)nc2cncc(CNC3CCNCC3)c21.Cl    0
Cn1ccc2ncnc(Oc3ccc(NC(=O)Nc4cccc(C(F)(F)F)c4)c(Cl)c3)c21    22
Cn1ccc2ncnc(Oc3ccc(NC(=O)Nc4cc(C(C)(C)C)on4)c(Cl)c3)c21    40
NC(=O)Nc1sc(-c2ccc(F)cc2)cc1C(N)=O    0
CN1CCN(CCCNc2nccc(-c3c(-c4ccc(F)cc4)nn4cc(C(N)=O)ccc34)n2)CC1    0
COC(=O)Nc1nc2cc(Oc3ccc(NC(=O)Nc4cc(C(F)(F)F)ccc4Cl)cc3)ccc2[nH]1.Cl    0
Cc1n[nH]c2cc(Nc3ccnc(Nc4cccc(CN5CCOCC5)c4)n3)ccc12    0
